assay: chemical genetic growth profiling, strain panel (AID 1159580);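 also: tested at 20 µM; growth read once vehicle control cultures reached saturation at 30 °C; 1 = growth at the plate median or of vehicle wells; lower values mean less growth of the strain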; settings: S. cerevisiae strains, growth OD, strain wild type, active compounds read low
The campaign covered roughly 5,500 compounds. About 2,000 (36%) were called active. Not shown: some 18% with an inconclusive outcome. Some of the results follow.
Binarize normalized growth at 1; below is Satisfied, at or above is Not satisfied.

Please let me know if "CCn1cc(C(=O)O)c(=O)c2ccc(C)nc21" shows normalized growth below 1.
Satisfied

Same question for "O=C(O)c1cc(O)c(O)c(O)c1" please.
Not satisfied

====

test: chemical genetic growth profiling, strain panel (AID 1159580);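 also: tested at 20 µM; growth read once vehicle control cultures reached saturation at 30 °C; 1 = growth at the plate median or of vehicle wells; lower values mean less growth of the strain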; conditions: S. cerevisiae deletion strains, growth OD, locus YJR043C, strain POL32, active compounds read low
In all, about 5,500 compounds went through this assay and about 2,000 (36%) were called active. About 18% were inconclusive and are not listed. The list shows a part of the results.
QUANTITY: normalized growth

Quick one: normalized growth for "O=C(/C=C/c1ccc(O)c(O)c1)O[C@@H]1C[C@](O)(C(=O)O)C[C@@H](O)[C@H]1O" ?
1.01 (inactive)

Then what about the compound "O=C1OCCN1/N=C\c1ccc([N+](=O)[O-])o1" ?
0.762 (active)

Similarly, "COc1ccc(CN(Cc2ccc(OC)cc2)C(=O)c2cccs2)cc1" ?
0.994 (inactive)

Same for "ON(Cc1c(F)cccc1Cl)Cc1c(F)cccc1Cl"
1.01 (inactive)

Next compound up: CN1CCc2cccc3c2C1Cc1ccc(O)c(O)c1-3 (stereo not given)
1.03 (inactive)

Note, next up: Nc1nc(N)c2nc(CNc3ccc(C(=O)NC(CCC(=O)O)C(=O)O)cc3)cnc2n1 (stereo not given)
1.04 (inactive)

# repeat for "CCOC(=O)c1c(-c2ccc(F)cc2)csc1N"
0.957 (inactive)

Similarly, "CO[C@@H]1[C@@H](O[C@@H]2O[C@H](C)[C@@H](O[C@H]3C[C@@](C)(O)[C@H](O)[C@H](C)O3)[C@H](N(C)C)[C@H]2O)[C@@H](CC=O)C[C@@H](C)[C@@H](O[C@H]2CC[C@H](N(C)C)[C@@H](C)O2)/C=C/C=C/C[C@H](C)OC(=O)C[C@H]1O" ?
1 (inactive)

Cool, now CC(C)C1=CC2=CCC3[C@](C)(CCC[C@]3(C)C(=O)O)C2CC1 (stereo not given in full)
1.02 (inactive)

Record: CC(=O)O[C@H]1CC[C@@]2(C)C(=CCC3C2CC[C@]2(C)C(=O)CCC32)C1 (stereo not given in full)
0.857 (inactive)

Try the compound "C[C@@H]1C[C@@H]([C@H](O)CC2CC(=O)NC(=O)C2)C(=O)[C@@H](C)C1"
0.0691 (active)

Again, but for "CCOC(=O)c1c(N=Cc2cc(Br)c(Br)cc2O)sc2c1CCCC2"
0.318 (active)

Also check "COc1ccc(/C=C/C(=O)O)cc1OC"
1.06 (inactive)

// same read-out, input: "COP(=S)(OC)Oc1ccc(SC)c(C)c1"
1 (inactive)

Can you handle "C[C@H](COc1ccccc1)N[C@H](C)[C@H](O)c1ccc(O)cc1" next?
1.04 (inactive)

What about this compound? "CCn1cc(C(=O)O)c(=O)c2ccc(C)nc21"
0.967 (inactive)

Moving on to the next compound: "C=CC1=C(C)/C(=C/c2[nH]c(Cc3[nH]c(/C=C4\NC(=O)C(C)=C4C=C)c(C)c3CCC(=O)O)c(CCC(=O)O)c2C)NC1=O"
1.02 (inactive)

"Nc1nc2ncc(CNc3ccc(C(=O)N[C@@H](CCC(=O)O)C(=O)O)cc3)nc2c(=O)[nH]1" , same question.
1.01 (inactive)

Can you handle CN(Cc1cnc2nc(N)nc(N)c2n1)c1ccc(C(=O)NC(CCC(=O)O)C(=O)O)cc1 (stereo not given) next?
0.98 (inactive)

Please answer likewise for "CCn1cc(C(=O)O)c(=O)c2cc3c(cc21)OCO3"
1.02 (inactive)

"O=c1[nH]c(-c2cc(Br)cs2)nc2ccc(Cl)cc12" ?
1.01 (inactive)

Let us now turn to "CCn1cc(C(=O)O)c(=O)c2cnc(N3CCCC3)nc21"
1.03 (inactive)

Entry "Fc1cccc(Cl)c1Cn1nnc(N2CCCCC2)n1" please
0.982 (inactive)

What do we get for "OC/C=C/c1ccc(O)c(O)c1" ?
1.02 (inactive)

Another compound: CC1(C)CC2C1CCC1(C)OC1CCC2(C)O (stereo not given)
1.04 (inactive)

Try this compound too: "S=C(NCCCn1ccnc1)Nc1cc(Cl)ccc1Cl"
1 (inactive)

Same for "Cc1onc(-c2ccccc2Cl)c1C(=O)Nc1ccc(S(=O)(=O)Nc2nccs2)cc1"
0.966 (inactive)

Next up: Nc1nc2c(c(=O)[nH]1)N(C=O)C(CNc1ccc(C(=O)N[C@@H](CCC(=O)O)C(=O)O)cc1)CN2 (stereo not given in full)
1.01 (inactive)

And "O=C1N=C(O)CN1/N=C\c1ccc(-c2ccc([N+](=O)[O-])cc2)o1" ?
1.04 (inactive)

Here is the next compound: "Oc1ccc(/C=C/c2cc(O)cc(O)c2)cc1"
0.946 (inactive)

Here is the next compound: "CCOc1ccc2c(c1)C(C)=CC(C)(C)N2"
0.979 (inactive)

Same question, Nc1c(Br)cc(Br)cc1CNC1CCC(O)CC1 (stereo not given) this time
1.02 (inactive)

Thanks! And "BrC12CC3CC(CC(C3)C1)C2" ?
1.02 (inactive)

Now the same for "NCc1ccc(S(N)(=O)=O)cc1"
1.01 (inactive)

What about "CCNS(=O)(=O)c1cc(Cl)sc1Cl" ?
1.01 (inactive)

Now consider "NC(=O)N/N=C\c1ccc([N+](=O)[O-])o1" .
0.977 (inactive)

Then this compound: "COc1ccc2c(c1O)-c1c(OC)c(OC)cc3c1[C@H](C2)N(C)CC3"
1.03 (inactive)

Proceed to "Cc1ccc(CSC(=N)N)cc1"
1 (inactive)

What do you get for CCCCCCCC1CC/C(=C\c2ccc(/C=C3\CCC(CCCCCCC)C3=O)cc2)C1=O (stereo not given) ?
1.01 (inactive)

Lookup "Cc1onc(-c2ccccc2Cl)c1C(=O)Nc1ccc2c(c1)OCO2"
1.03 (inactive)

Another compound to look at: "NC(=O)c1cnccn1"
1 (inactive)

"Nc1nccs1" , same question.
0.985 (inactive)

Can you check "O=C1O[C@@H](CO)[C@H](O)[C@@H](O)[C@@H]1O" next?
0.99 (inactive)

Input "COc1nc(N)nc(SC)n1"
0.987 (inactive)

Cool, now "O=C1CNC(=S)N1CCc1ccccn1"
0.991 (inactive)
